Consider the following compounds; for each one, report its log10 of IC50.
target: human LPA1 receptor (Homo sapiens, UniProt Q92633); construct: TEV protease site; Gal4-VP16 transcription factor; host or cells: Tango EDG2-bla U2OS cells; assay: Beta-arrestin recruitment assay to determine IC50 values for human LPAR1; type: cell-based; settings: Tango EDG2-bla U2OS cells, antagonist assay, LPA 18:1 500 nM final
Sequence (Q92633 whole entry, the tested form may be a part): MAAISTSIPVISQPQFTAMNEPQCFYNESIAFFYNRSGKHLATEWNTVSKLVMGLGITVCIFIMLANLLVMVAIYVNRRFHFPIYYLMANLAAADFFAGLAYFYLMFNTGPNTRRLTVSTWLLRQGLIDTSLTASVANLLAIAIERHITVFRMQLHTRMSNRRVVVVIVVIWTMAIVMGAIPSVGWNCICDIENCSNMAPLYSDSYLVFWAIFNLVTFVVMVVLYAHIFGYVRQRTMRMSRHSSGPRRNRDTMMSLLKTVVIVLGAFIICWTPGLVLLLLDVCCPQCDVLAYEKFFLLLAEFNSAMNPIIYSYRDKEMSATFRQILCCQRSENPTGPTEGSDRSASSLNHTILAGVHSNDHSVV
// stored as log10 of IC50 expressed in nM

Consider the following illustrative entries.
structure | log10 of IC50
COc1cc(Cl)ncc1NC(=O)C1(c2ccccc2C(C)C)CN(S(=O)(=O)NCCO)C1 | 1.75
CNS(=O)(=O)N1CC(C(=O)Nc2cnc(Cl)cc2OC)(c2ccccc2C(C)C)C1 | 1.28
COc1cc(Cl)ncc1NC(=O)C1(c2ccccc2C(C)C)CN(c2ccncc2C)C1 | 0.30
COc1cc(Cl)ncc1NC(=O)C1(c2ccccc2C(C)C)CN(S(=O)(=O)CCO)C1 | 1.32
CCOc1cc(Cl)ncc1NC(=O)C1(c2ccccc2C(C)C)CN(CCCC(C)(C)C(=O)O)C1 | 1.32

Each compound below has a recorded value; state its log10 of IC50.
1. COc1cc(Cl)ncc1NC(=O)C1(c2ccccc2C(C)C)CN(c2ncc(C(=O)O)cn2)C1
2. COc1cc(Cl)ncc1NC(=O)C1(c2ccccc2C(C)C)CN(c2nc(C(=O)O)co2)C1
3. COc1cc(Cl)ncc1NC(=O)C1(c2ccccc2C(C)C)CN(C(=O)Cn2nccn2)C1
4. COc1cc(Cl)ncc1NC(=O)C1(c2ccccc2C(C)C)CNC1
5. COc1cc(Cl)ncc1NC(=O)C1(c2ccccc2C(C)C)CCN(CCC(C)(C)C(=O)O)CC1
6. COc1cc(Cl)ncc1NC(=O)C1(c2ccccc2C(C)C)CN(c2cc(F)ccn2)C1
7. CCOc1cc(Cl)ncc1NC(=O)C1(c2ccccc2C(C)C)CN(CCC(C)(C)C(=O)OC)C1

Return:
[3.50, 1.96, 1.18, 0.60, 1.90, 0.00, 2.15]

Each compound below has a recorded value; state its log10 of IC50.
1. COc1cc(Cl)ncc1NC(=O)C1(c2ccccc2C(C)C)CN(c2ccnc(C)c2F)C1
2. COc1cc(Cl)ncc1NC(=O)C1(c2ccccc2C(C)C)CN(C=O)C1
3. COC(=O)N1CC(C(=O)Nc2cnc(Cl)cc2OC)(c2ccccc2C(C)C)C1
4. COc1cc(Cl)ncc1NC(=O)C1(c2ccccc2C(C)C)CN(c2ncc(C#N)cn2)C1

Return:
0.30
0.95
0.78
0.00

----------
biological target: human LPA1 receptor (Homo sapiens, UniProt Q92633); construct: TEV protease site; Gal4-VP16 transcription factor; experiment: Beta-arrestin recruitment assay to determine IC50 values for human LPAR1; details: Tango EDG2-bla U2OS cells, antagonist assay, LPA 18:1 500 nM final
observable: pIC50
Answers are plain numbers, as −log10 of the molar value.

Consider the following illustrative entries.
molecule | pIC50
COC(=O)C(C)(C)CCN1CCC(C(=O)Nc2cnc(Cl)cc2OC)(c2ccccc2C(C)C)CC1 [Example 18-21] | 7.72
CC(C)Oc1cc(Cl)ncc1NC(=O)C1(c2ccccc2C(C)C)CN(S(N)(=O)=O)C1 [Example 21-4] | 9.00

Each molecule below has a recorded value; state its pIC50.
1. COC[C@H](C)Oc1cc(Cl)ncc1NC(=O)C1(c2ccccc2C(C)C)CNC1 [Example 9]
2. COc1cc(Cl)ncc1NC(=O)C1(c2ccccc2C(C)C)CN(c2ccnc(C)n2)C1 [Example 24-12]

Return:
[8.40, 8.15]

----------
biological target: human LPA1 receptor (Homo sapiens, UniProt Q92633); construct: TEV protease site; Gal4-VP16 transcription factor; test: Beta-arrestin recruitment assay to determine IC50 values for human LPAR1; conditions: Tango EDG2-bla U2OS cells, antagonist assay, LPA 18:1 500 nM final
Consider the following compounds; for each one, report its IC50.

Consider the following illustrative entries.
compound | measured.target | observable | experimental.value
COc1cc(Cl)ncc1NC(=O)C1(c2ccccc2C2CCCC2)CN(S(N)(=O)=O)C1 [Example 21-19] | human LPA1 receptor (Homo sapiens, UniProt Q92633) | IC50 | 4 nM
CCNC(=O)N1CC(C(=O)Nc2cnc(Cl)cc2OC)(c2ccccc2C(C)C)C1 [Example 22-3] | human LPA1 receptor (Homo sapiens, UniProt Q92633) | IC50 | 6 nM
C=C(C)C(=O)OCCNC(=O)N1CC(C(=O)Nc2cnc(Cl)cc2OC)(c2ccccc2C(C)C)C1 [Example 22-8] | human LPA1 receptor (Homo sapiens, UniProt Q92633) | IC50 | 12 nM
CC(C)Oc1cc(Cl)ncc1NC(=O)C1(c2ccccc2C(C)C)CN(CCC(C)(C)C(=O)O)C1 [Example 18-20] | human LPA1 receptor (Homo sapiens, UniProt Q92633) | IC50 | 16 nM
COc1cc(Cl)ncc1NC(=O)C1(c2ccccc2C(C)C)CN(C(=O)c2noc(O)n2)C1 [Example 19-6] | human LPA1 receptor (Homo sapiens, UniProt Q92633) | IC50 | 61 nM

Each compound below has a recorded value; state its IC50.
1. COc1cc(Cl)ncc1NC(=O)C1(c2ccccc2C(C)C)CN(C(=O)NC(C)C)C1 [Example 22-4]
2. COc1cc(Cl)ncc1NC(=O)C1(c2ccccc2C(C)C)CN(Cc2c[nH]nn2)C1 [Example 18-15]
3. COc1cc(Cl)ncc1NC(=O)C1(c2ccccc2C(C)C)CN(S(C)(=O)=O)C1 [Example 20-1]

Return:
["9 nM", "61 nM", "11 nM"]

----------
molecular target: human LPA1 receptor (Homo sapiens); construct: TEV protease site; Gal4-VP16 transcription factor; assay: Beta-arrestin recruitment assay to determine IC50 values for human LPAR1; details: Tango EDG2-bla U2OS cells, antagonist assay, LPA 18:1 500 nM final
observable: pIC50
Numbers only, as −log10 of the molar value.

Consider the following illustrative entries.
compound | measured.target | pIC50
CCOc1cc(Cl)ncc1NC(=O)C1(c2ccccc2C(C)C)CN(C(=O)CC(C)(C)C(=O)O)C1 [Example 19-22] | human LPA1 receptor (Homo sapiens) | 7.92
COCCOc1cc(Cl)ncc1NC(=O)C1(c2ccccc2C(C)C)CNC1 [Example 8] | human LPA1 receptor (Homo sapiens) | 6.60
COc1cc(Cl)ncc1NC(=O)C1(c2ccccc2C(C)C)CN(c2cc(C)nc(C)c2)C1 [Example 24-6] | human LPA1 receptor (Homo sapiens) | 7.04
CCOc1cc(Cl)ncc1NC(=O)C1(c2ccccc2C(C)C)CNC1 [Example 5] | human LPA1 receptor (Homo sapiens) | 8.52
CCOc1cc(Cl)ncc1NC(=O)C1(c2ccccc2C(C)C)CN(S(N)(=O)=O)C1 [Example 21-3] | human LPA1 receptor (Homo sapiens) | 8.70

Each compound below has a recorded value; state its pIC50.
1. COc1cc(Cl)ncc1NC(=O)C1(c2ccccc2C(C)C)CN(c2ccncc2F)C1 [Example 24-2]
2. COc1cc(Cl)ncc1NC(=O)C1(c2ccccc2C(C)C)CN(c2ncncc2C)C1 [Example 24-13]

Return:
8.70
8.30

Each compound below has a recorded value; state its pIC50.
1. CCOC(=O)c1coc(N2CC(C(=O)Nc3cnc(Cl)cc3OC)(c3ccccc3C(C)C)C2)n1 [Example 24-25]
2. COc1cc(Cl)ncc1NC(=O)C1(c2c(F)cccc2C(C)C)CN(S(N)(=O)=O)C1 [Example 21-14]
3. COc1cc(Cl)ncc1NC(=O)C1(c2ccccc2C(C)C)CN(CCc2nnn[nH]2)C1 [Example 18-4]
4. COc1cc(Cl)ncc1NC(=O)C1(c2ccccc2C(C)C)CN(C(=O)CNS(C)(=O)=O)C1 [Example 19-15]
5. COc1cc(Cl)ncc1NC(=O)C1(c2ccccc2C(C)C)CN(CCCC(C)(C)C(=O)O)C1 [Example 18-25]

Return:
1. 7.82
2. 8.40
3. 6.84
4. 7.43
5. 7.33

Each compound below has a recorded value; state its pIC50.
1. COc1cc(Cl)ncc1NC(=O)C1(c2ccccc2C(C)C)CN(Cc2cn[nH]c2)C1 [Example 18-14]
2. COc1cc(Cl)ncc1NC(=O)C1(c2ccccc2C(C)C)CN(C(=O)Cn2ccnn2)C1 [Example 19-11]
3. COc1cc(Cl)ncc1NC(=O)C1(c2ccccc2C(C)C)CN(c2ccnc(C)c2)C1 [Example 24-5]
4. COC(=O)c1cnc(N2CC(C(=O)Nc3cnc(Cl)cc3OC)(c3ccccc3C(C)C)C2)cn1 [Example 24-19]

Return:
1: 7.13; 2: 6.97; 3: 8.52; 4: 8.05

----------
target: human LPA1 receptor (Homo sapiens, UniProt Q92633); construct: TEV protease site; Gal4-VP16 transcription factor; test: Beta-arrestin recruitment assay to determine IC50 values for human LPAR1; settings: Tango EDG2-bla U2OS cells, antagonist assay, LPA 18:1 500 nM final
Consider the following compounds; for each one, report its IC50.
Numbers only, in nM.

Consider the following illustrative entries.
structure | unit.abbreviation | experimental.value
COc1cc(Br)ncc1NC(=O)C1(c2ccccc2C(C)C)CNC1 | nM | 6
COc1cc(Cl)ncc1NC(=O)C1(c2ccccc2C(C)C)CN(c2cc(C)ncc2F)C1 | nM | 2
COc1cc(Cl)ncc1NC(=O)C1(c2ccccc2C(C)C)CN(c2ncncc2F)C1 | nM | 2
COc1cc(Cl)ncc1NC(=O)C1(c2ccccc2C(C)C)CN(C(=O)CNS(N)(=O)=O)C1 | nM | 67
COCCS(=O)(=O)N1CC(C(=O)Nc2cnc(Cl)cc2OC)(c2ccccc2C(C)C)C1 | nM | 608
COc1cc(Cl)ncc1NC(=O)C1(c2ccccc2C(C)C)CN(C(C)=O)C1 | nM | 19

Each compound below has a recorded value; state its IC50.
1. COc1cc(Cl)ncc1NC(=O)C1(c2ccccc2C(C)C)CN(C(=O)Cn2ncnn2)C1
2. COc1cc(Cl)ncc1NC(=O)C1(c2ccccc2C(C)C)CN(c2nnn[nH]2)C1

Return:
1: 17; 2: 270
